# koff per record follows
Target: StrepII-tagged ROR1-extracellular domain (human, UniProt Q01973)
Sequence (Q01973 other isoform, or with tags, fused parts or gaps): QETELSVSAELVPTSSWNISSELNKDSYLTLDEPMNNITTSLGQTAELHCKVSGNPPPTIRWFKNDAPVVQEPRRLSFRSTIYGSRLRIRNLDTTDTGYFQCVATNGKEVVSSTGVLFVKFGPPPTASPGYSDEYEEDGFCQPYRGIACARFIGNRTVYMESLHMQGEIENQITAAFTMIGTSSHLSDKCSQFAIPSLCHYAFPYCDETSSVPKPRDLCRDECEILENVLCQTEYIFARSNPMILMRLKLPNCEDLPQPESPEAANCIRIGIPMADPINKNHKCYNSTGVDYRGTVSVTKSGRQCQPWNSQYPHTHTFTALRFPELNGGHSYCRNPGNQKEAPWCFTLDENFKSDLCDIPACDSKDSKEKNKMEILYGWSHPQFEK
Assay: SPR (Biacore T200), purified mAb captured by anti-human Fc, ROR1-strep as analyte, 1:1 model
Write down the numeric answer in s⁻¹ and omit the unit.

# binder, koff (s⁻¹)
records = [
    ("rbQ11, humanized from R11 (antibody, V domains shown) VH: EVQLVQSGGGLVQPGGSLRLSCAASGSDINDYPISWVRQAPGKGLEWVSFINSGGSTWYASWVKGRFTISRDNAKNSLYLQMNSLRDDDTATYFCARGYSTYYGDFNIWGQGTLVTVSS VL: DIVMTQSPSSLSASVGDRVTITCQASQSIDSNLAWFQQKPGKAPKSLIYRASNLASGVPSKFSGSGSGTDFTLTISSLQREDAATYYCLGGVGNVSYRTSFGGGTKVEIK", 0.00498),
    ("hu2A2-D23, humanized from 2A2 (antibody, V domains shown) VH: QVQLVESGAEVKKPGASVKLSCKASGYTFSDYEMHWVRQAPGQRLEWMGAIDPETGGTAYNQKFKGRVTITVDKSASTAYMELSSLRSEDTAVYYCTGYYDYDSFTYWGPGTTVTVSS VL: DIVMTQSPSTLSASVGDRVTITCKASQNVDAAVAWYQQKPGTAPKLLIYSASNRYTGVPSRFSGSGSGTEFTLTISSLQSEDLADYFCQQYDIYPYTFGQGTKLEIK", 0.0138),
]

Proceed to the following item.
query: # input binder: rbQ12, humanized from R11 (antibody, V domains shown) VH: EVQLVESGGGLVQPGGSLRLSCAASGSDINDYPISWVRQAPGKGLEWVSFINSGGSTWYASWVKGRFTISRDNAKNSLYLQMNSLRADDTATYFCARGYSTYYGDFNIWGQGTMVTVSS VL: EIVMTQSPSSLSASVGDRVTITCQASQSIDSNLAWFQQKPGKAPNLLIYRASNLASGVPSRFSGSGSGTEFTLTISSLQREDAATYYCLGGVGNVSYRTSFGQGTKVEIK ; wanted: its koff
result: 0.0104

Reference source: patent US11845793B2
